Tested on: Vero E6 infected with SARS-CoV-2
Experiment: inhibition of SARS-CoV-2 cytopathic effect; higher = more antiviral protection, active = above 15
Conditions: 10000 nM; 48 h
reported endpoint: inhibition of SARS-CoV-2 cytopathic effect (%)
Could you give me the number in %? Just the number is fine.

Answered cases to consult:
compound	target under test	reading unit	result value
Cc1cnc(C(=O)N[C@H]2CCCCC/C=C\[C@@H]3C[C@@]3(C(=O)NS(=O)(=O)C3CC3)NC(=O)[C@@H]3C[C@@H](Oc4nc5ccccc5c5ccccc45)CN3C2=O)cn1	Vero E6 infected with SARS-CoV-2	%	1.71
N[C@@H](Cc1ccc(O)cc1)C(=O)O [plovamer-acetate]	Vero E6 infected with SARS-CoV-2	%	-5.19
O=C(O)CCc1c[nH]c2ccccc12	Vero E6 infected with SARS-CoV-2	%	-0.06
O=C(O)c1ccccc1NCCc1ccccc1	Vero E6 infected with SARS-CoV-2	%	1.35
N#Cc1cc2c(OCC(O)CN3CCN(C(c4ccccc4)c4ccccc4)CC3)cccc2[nH]1 (stereo not given)	Vero E6 infected with SARS-CoV-2	%	-2.26

Give Vero E6 infected with SARS-CoV-2 inhibition of SARS-CoV-2 cytopathic effect for CNC(=O)c1c(I)c(NC(C)=O)c(I)c(C(=O)O)c1I
-1.65

Repeat with Oc1cc(O)c2c(c1)O[C@H](c1ccc(O)c(O)c1)[C@H](O)[C@H]2c1c(O)cc(O)c2c1O[C@H](c1ccc(O)c(O)c1)[C@H](O)C2
-0.73

Now give it for c1ccc2nc(N3CCNCC3)ccc2c1 too.
-2.16

And then Cc1ccccc1-n1c(CF)nc2ccc(N)cc2c1=O , what is it?
1.46

Repeat with CCS(=O)(=O)N1CCN(c2ccc(Nc3ncc(C(N)=O)c(NC4CC4)n3)cc2)CC1
-5.53

====

Tested on: Vero E6 infected with SARS-CoV-2
Assay: inhibition of SARS-CoV-2 cytopathic effect; higher = more antiviral protection, active = above 15
Conditions: 8.33 nM; 48 h
Measured inhibition of SARS-CoV-2 cytopathic effect, listed per entry.
Please give a number only; it is taken to be in %.

Example entries begin here.
molecule	result value
CC(=O)N[C@H](Cc1ccc2ccccc2c1)C(=O)N[C@H](Cc1ccc(Cl)cc1)C(=O)N[C@H](Cc1cccnc1)C(=O)N[C@@H](CO)C(=O)N[C@@H](Cc1ccc(NC(=O)[C@@H]2CC(=O)NC(=O)N2)cc1)C(=O)N[C@H](Cc1ccc(NC(N)=O)cc1)C(=O)N[C@@H](CC(C)C)C(=O)N[C@@H](CCCCNC(C)C)C(=O)N1CCC[C@H]1C(=O)N[C@H](C)C(N)=O [degarelix]	1.93
O=C(O)c1cc(=O)c2ccccc2[nH]1 [kynurenic-acid]	1.12
CN(C)[C@@H]1C(O)=C(C(N)=O)C(=O)[C@@]2(O)C(O)=C3C(=O)c4c(O)cccc4[C@@](C)(O)[C@H]3C[C@@H]12 [tetracycline]	1.27
CCn1nc(C)c2c1C(c1ccccc1)=NCC(=O)N2 [ripazepam]	0.91
CC(C)(C(=O)NCC(F)(F)C(F)(F)F)C(=O)N[C@@H]1C(=O)Nc2ccccc2-c2ccccc21	-4.36

Which inhibition of SARS-CoV-2 cytopathic effect value is on record for CN(C)CCNc1nc2cc(O)ccc2c2c1C(=O)c1ccccc1-2 ?
1.19

Further, for Cc1ccc(-c2cc(C(F)(F)F)nn2-c2ccc(S(N)(=O)=O)cc2)cc1 [celecoxib] ?
1.32

Same for Cc1cc(-c2ccc(/N=N/c3ccc4c(S(=O)(=O)O)cc(S(=O)(=O)O)c(N)c4c3O)c(C)c2)ccc1/N=N/c1ccc2c(S(=O)(=O)O)cc(S(=O)(=O)O)c(N)c2c1O [evans-blue]
-4.89

Same read-out for C[C@@H](Oc1ccc(Cl)cc1)c1ccnc2ncnn12 ?
0.02

Try CCCCCCCCCCCCCCCCCCCCCCCCCCCCO [1-octacosanol] next.
3.47

Cool, now CN(C)[C@@H](CCOc1cccc2ccccc12)c1ccccc1 [dapoxetine]
3.51

Consider next the molecule Cc1cc(/C=C/C#N)cc(C)c1Nc1ccnc(Nc2ccc(C#N)cc2)n1 [rilpivirine] in the same way.
-3.25

Proceed to CCCC(C)NC(=O)c1ccc(Cl)c(Cl)c1 (stereo unspecified)
1.88

And Clc1ccccc1C(c1ccccc1)(c1ccccc1)n1ccnc1 [clotrimazole] ?
-0.06

====

Tested on: Vero E6 infected with SARS-CoV-2
Assay: inhibition of SARS-CoV-2 cytopathic effect; higher = more antiviral protection, active = above 15
Conditions: 833.33 nM; 48 h
reported endpoint: inhibition of SARS-CoV-2 cytopathic effect (%)
Return type: number; implicit unit %.

molecule	reading unit	result value
Oc1ccc(C2CNCCc3c2cc(O)c(O)c3Cl)cc1 (stereo unspecified) [fenoldopam]	%	0.98

Which inhibition of SARS-CoV-2 cytopathic effect is reported with Vero E6 infected with SARS-CoV-2 for this entry: N[C@@H](CCNCc1ccc(Cl)cc1)C(=O)N1CCCCC1 ?
-1.49

Another molecule to look at: COc1cc(N)c(Cl)cc1C(=O)CCC1CCN(CCNS(C)(=O)=O)CC1
0.95

Same for CN(C)C(=O)COC(=O)Cc1ccc(OC(=O)c2ccc(NC(=N)N)cc2)cc1 [camostat-mesilate]
1.93

Now give it for Oc1cc(O)c(Cl)cn1 [gimeracil] too.
-0.16

Please do the same for O=C(O)C1(C(=O)O)CCC1.[NH2-].[NH2-].[Pt+2] [carboplatin] as well.
9.87

====

inhibition of SARS-CoV-2 cytopathic effect values by entry
Tested on: Vero E6 infected with SARS-CoV-2
Assay: inhibition of SARS-CoV-2 cytopathic effect; higher = more antiviral protection, active = above 15
Settings: 833.33 nM; 48 h

structure	result value
C[C@@H]1CN(CC(=O)Nc2ccc3c(c2)Cc2cccc(-c4cc(=O)cc(N5CCOCC5)o4)c2S3)C[C@H](C)O1	2.87% (inactive)
Cc1cccn2c(=O)c(/C=C(\C#N)c3nc4ccccc4s3)c(Oc3ccc(F)cc3)nc12	-1.93% (inactive)

Lab request: please report inhibition of SARS-CoV-2 cytopathic effect under test system Vero E6 infected with SARS-CoV-2 for CC(C)(Cc1c[nH]c2ccc(Cl)cc12)NCCOc1ccccc1OCC1CC1
-2.24% (inactive)

Ok, now CN1c2c([nH]c(N)nc2=O)NC[C@@H]1CNc1ccc(C(=O)N[C@@H](CCC(=O)O)C(=O)O)cc1
0.81% (inactive)

Item: CNCc1ccc(-c2[nH]c3cc(F)cc4c3c2CCNC4=O)cc1
5.18% (inactive)

====

Test system: Vero E6 infected with SARS-CoV-2
Assay: SARS-CoV-2 infection rate relative to infected DMSO; higher = more infection, active = 60 or less
Conditions: 24 h
reported endpoint: SARS-CoV-2 infection rate (%)
Report only the number, with the unit % understood.

compound	reading unit	SARS-CoV-2 infection rate
COc1ccc([C@]2(C#N)CC[C@@H](C(=O)O)CC2)cc1OC1CCCC1 [cilomilast] (10 µM)	%	104
[N-]=[N+]=N[C@]1(CO)O[C@@H](n2ccc(N)nc2=O)[C@H](O)[C@@H]1O (10 µM)	%	109
CCO[C@@H](Cc1ccc(OCCc2ccc(OS(C)(=O)=O)cc2)cc1)C(=O)O [tesaglitazar] (10 µM)	%	110

So what's the measured SARS-CoV-2 infection rate for this one? Cc1nn(-c2ccccc2)c(C)c1/C=N/N1CCN(Cc2ccccc2)CC1 (10 µM)
117

Also COc1ccc(C(=O)/C(Cc2cc(OC)c(OC)c(OC)c2)=C(\C(=O)O)c2ccc3c(c2)OCO3)cc1 (10 µM) ?
69

And N[C@@H](CCC(=O)N[C@@H](CSN=O)C(=O)NCC(=O)O)C(=O)O [S-nitrosoglutathione] (10 µM) ?
104

Same thing, different compound: CCC1NC(=O)c2cc(S(N)(=O)=O)c(Cl)cc2N1 (stereo not drawn) [quinethazone] (10 µM)
88

Another compound to check: Cc1cccc(OCC(O)CNC(C)(C)C)c1C (stereo not drawn) [xibenolol] (10 µM)
97.5

====

Tested on: Vero E6 infected with SARS-CoV-2
Test: inhibition of SARS-CoV-2 cytopathic effect; higher = more antiviral protection, active = above 15
Settings: 1 nM; 48 h
// inhibition of SARS-CoV-2 cytopathic effect lookup, one value per entry
Please reply with the bare figure in % and do not write the unit itself.

Known inhibition of SARS-CoV-2 cytopathic effect results, listed for orientation:
molecule	target under test	result value
CN(C)C(=O)COC(=O)Cc1ccc(OC(=O)c2ccc(NC(=N)N)cc2)cc1 [camostat-mesilate]	Vero E6 infected with SARS-CoV-2	3.69
O=c1c(O)c(-c2ccc(O)c(O)c2)oc2cc(O)ccc12	Vero E6 infected with SARS-CoV-2	0.55
C[C@@H]1C[C@@H]([C@H](O)CC2CC(=O)NC(=O)C2)C(=O)[C@@H](C)C1 [cycloheximide]	Vero E6 infected with SARS-CoV-2	2.12
C=C1CC/C=C(\C)CC[C@@H]2[C@@H]1CC2(C)C	Vero E6 infected with SARS-CoV-2	1.74
Cc1cc(C#N)cc(C)c1Oc1nc(Nc2ccc(C#N)cc2)nc(N)c1Br	Vero E6 infected with SARS-CoV-2	-0.95

Please state recorded inhibition of SARS-CoV-2 cytopathic effect (tested on Vero E6 infected with SARS-CoV-2) of CC(=O)N1CCC(NC(=O)c2ccc(F)cc2)CC1
-1.4

Cool, now CCCCC[C@H](O)/C=C/[C@H]1[C@H](O)CC(=O)[C@@H]1C/C=C\CCCC(=O)O
-2.72

Query CC[C@@H]1/C=C(\C)C[C@H](C)C[C@H](OC)[C@H]2O[C@@](O)(C(=O)C(=O)N3CCCC[C@H]3C(=O)O[C@H](/C(C)=C/[C@@H]3CC[C@@H](O)[C@H](OC)C3)[C@H](C)[C@@H](O)CC1=O)[C@H](C)C[C@@H]2OC next
1.02
